Where do the numbers come from? From paper PMC4336329.

Target Or System: human ether-à-go-go-related gene (hERG) potassium channel (human);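 also: peak tail current of the secondary pulse compared with the same well before compound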
Sequence (Q12809 whole entry, looked up): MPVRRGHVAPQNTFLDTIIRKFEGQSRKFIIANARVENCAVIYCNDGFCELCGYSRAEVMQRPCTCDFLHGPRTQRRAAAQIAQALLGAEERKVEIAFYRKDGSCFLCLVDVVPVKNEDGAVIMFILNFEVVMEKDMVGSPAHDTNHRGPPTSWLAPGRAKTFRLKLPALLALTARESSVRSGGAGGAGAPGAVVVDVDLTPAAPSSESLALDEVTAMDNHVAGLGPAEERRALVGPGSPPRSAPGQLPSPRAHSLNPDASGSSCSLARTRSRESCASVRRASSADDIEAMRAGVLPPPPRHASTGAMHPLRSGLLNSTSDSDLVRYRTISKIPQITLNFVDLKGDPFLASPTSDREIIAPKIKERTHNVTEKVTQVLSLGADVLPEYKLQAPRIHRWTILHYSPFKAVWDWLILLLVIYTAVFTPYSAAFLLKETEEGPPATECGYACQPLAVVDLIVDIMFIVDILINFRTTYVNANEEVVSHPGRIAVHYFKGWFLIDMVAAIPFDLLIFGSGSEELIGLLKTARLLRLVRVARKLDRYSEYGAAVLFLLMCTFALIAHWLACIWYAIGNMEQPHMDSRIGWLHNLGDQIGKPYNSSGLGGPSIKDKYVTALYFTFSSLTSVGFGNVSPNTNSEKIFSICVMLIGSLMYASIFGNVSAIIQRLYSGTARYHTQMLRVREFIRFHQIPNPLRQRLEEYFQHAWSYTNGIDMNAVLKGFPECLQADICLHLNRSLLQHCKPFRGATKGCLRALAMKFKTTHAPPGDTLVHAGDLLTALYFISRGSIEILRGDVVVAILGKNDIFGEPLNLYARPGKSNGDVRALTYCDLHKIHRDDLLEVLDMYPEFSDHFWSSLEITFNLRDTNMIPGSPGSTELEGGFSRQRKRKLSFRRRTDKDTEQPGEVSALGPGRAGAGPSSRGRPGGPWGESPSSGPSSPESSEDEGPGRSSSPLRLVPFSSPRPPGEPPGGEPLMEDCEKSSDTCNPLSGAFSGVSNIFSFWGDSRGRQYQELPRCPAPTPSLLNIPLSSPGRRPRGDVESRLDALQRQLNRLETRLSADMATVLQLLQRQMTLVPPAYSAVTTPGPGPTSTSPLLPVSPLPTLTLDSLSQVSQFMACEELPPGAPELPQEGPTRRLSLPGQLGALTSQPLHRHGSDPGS
Assay Details: primary screen, population patch clamp on CHO cells stably expressing hERG; higher = less effect of the substance
The campaign covered roughly 310,000 compounds. About 14,000 (4.5%) showed an effect of 50% or more. The effect is printed as a negative number. Shown is part of a subset that was picked to be rich in strong results.
Lab note: anything with hERG current change (%, negative = inhibition) at 10uM at or over -40% counts as 1.0; the rest go in 0.0.

A selection of reference data follows.
1) O=C(Nc1cccnc1)c1ccc(N2CCOCC2)c([N+](=O)[O-])c1	1.0
2) COc1ccc(CNC(=O)c2ccc(N3CCOCC3)c([N+](=O)[O-])c2)cc1	0.0
3) O=C(NCCNS(=O)(=O)c1ccc(C(F)(F)F)cc1)N1CCOCC1	1.0

Turning now to a further compound:
Q. // inclusive: hERG current change (%, negative = inhibition) at 10uM at least -40%? input: COc1cc(CNCCN(C)C)c(Br)cc1OCC(=O)NCc1ccccc1
A. 1.0
